The measurements presented in this section are drawn from patent US20180291081A1.

Target: T1, PD-1 molecule (refolded, purified and biotinylated PD-1 of Example 2) (UniProt Q15116 33-150, biotinylated with BirA enzyme (site not stated))
T1 construct: also called Programmed Death-1
T1 sequence (Q15116 33-150 limits assumed): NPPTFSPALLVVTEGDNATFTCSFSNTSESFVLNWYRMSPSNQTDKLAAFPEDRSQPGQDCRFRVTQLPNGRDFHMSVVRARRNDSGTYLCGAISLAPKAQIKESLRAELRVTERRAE
Experiment: SPR (BIAcore T200), single-cycle kinetics; biotinylated PD-1 captured via streptavidin, PDL-1 variant in solution
Endpoint: koff (s⁻¹)
Write it as a number; the unit s⁻¹ goes unstated.

Any idea what koff was measured for high affinity PDL-1 molecule L3C7 (ligand) FTVTVPKDLYVVEYGSNMTIECKFPVEKQLDLAALEVHWFMEDKNIIQFVHGEEDLKVQHSSYRQRARLLKDQLSLGNAALQITDVKLQDAGVYTCLIGYKGADYKRITVKVNAPYNKINQRILVVDPVTSEHELTCQAEGYPKAEVIWTSSDHQVLSGKTTTTNSKREEKLFNVTSTLRINTTTNEIFYCTFRRLDPEENHTAELVIPEL ?
0.0329

Any idea what koff was measured for high affinity PDL-1 molecule L1A4 (ligand) WTVTVPKDLYVVEYGSNMTIECKFPVEKQLDLAALQVFWMMEDKNIIQFVHGEEDLKVQHSSYRQRARLLKDQLSLGNAALQITDVKLQDAGVYTCLISYGGADYKRITVKVNAPYNKINQRILVVDPVTSEHELTCQAEGYPKAEVIWTSSDHQVLSGKTTTTNSKREEKLFNVTSTLRINTTTNEIFYCTFRRLDPEENHTAELVIPEL ?
0.0439

Any idea what koff was measured for high affinity PDL-1 molecule L32G5 (ligand) FTVTVPKDLYVVEYGSNMTIECKFPVEKQLDLAALIVYWEMEDKNIIQFVHGEEDLKVQHSSYRQRARLLKDQLSLGNAALQITDVKLQDAGVYTCLIGYHGADYKRITVKVNAPYNKINQRILVVDPVTSEHELTCQAEGYPKAEVIWTSSDHQVLSGKTTTTNSKREEKLFNVTSTLRINTTTNEIFYCTFRRLDPEENHTAELVIPEL ?
0.169

Any idea what koff was measured for high affinity PDL-1 molecule L2C4 (ligand) FTVTVPKDLYVVEYGSNMTIECKFPVEKQLDLAALQVHWWMEDKNIVSFVHGEEDLKVQHSSYRQRARLLKDQLSLGNAALQITDVKLQDAGVYRCMISYGGADYKRITVKVNAPYNKINQRILVVDPVTSEHELTCQAEGYPKAEVIWTSSDHQVLSGKTTTTNSKREEKLFNVTSTLRINTTTNEIFYCTFRRLDPEENHTAELVIPEL ?
0.124

Any idea what koff was measured for high affinity PDL-1 molecule L3G10 (ligand) FTVTVPKDLYVVEYGSNMTIECKFPVEKQLDLAALTVAWYMEDKNIIQFVHGEEDLKVQHSSYRQRARLLKDQLSLGNAALQITDVKLQDAGVYTCLIGYDGADYKRITVKVNAPYNKINQRILVVDPVTSEHELTCQAEGYPKAEVIWTSSDHQVLSGKTTTTNSKREEKLFNVTSTLRINTTTNEIFYCTFRRLDPEENHTAELVIPEL ?
0.263

Any idea what koff was measured for high affinity PDL-1 molecule L3C7b (ligand) FTVTVPKDLYVVEYGSNMTIECKFPVEKQLDLAALEVHWFMEDKNIFSFVHGEEDLKVQHSSYRQRARLLKDQLSLGNAALQITDVKLQDAGVYVCLIGYKGADYKRITVKVNAPYNKINQRILVVDPVTSEHELTCQAEGYPKAEVIWTSSDHQVLSGKTTTTNSKREEKLFNVTSTLRINTTTNEIFYCTFRRLDPEENHTAELVIPEL ?
0.0176
